Assign AC50 to each entry below.
molecular target: Cytochrome P450 3A4 (Homo sapiens); settings: Potency;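 further: confirmatory qHTS run detecting inhibitors and substrates of CYP3A4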
Sequence (P08684 whole entry): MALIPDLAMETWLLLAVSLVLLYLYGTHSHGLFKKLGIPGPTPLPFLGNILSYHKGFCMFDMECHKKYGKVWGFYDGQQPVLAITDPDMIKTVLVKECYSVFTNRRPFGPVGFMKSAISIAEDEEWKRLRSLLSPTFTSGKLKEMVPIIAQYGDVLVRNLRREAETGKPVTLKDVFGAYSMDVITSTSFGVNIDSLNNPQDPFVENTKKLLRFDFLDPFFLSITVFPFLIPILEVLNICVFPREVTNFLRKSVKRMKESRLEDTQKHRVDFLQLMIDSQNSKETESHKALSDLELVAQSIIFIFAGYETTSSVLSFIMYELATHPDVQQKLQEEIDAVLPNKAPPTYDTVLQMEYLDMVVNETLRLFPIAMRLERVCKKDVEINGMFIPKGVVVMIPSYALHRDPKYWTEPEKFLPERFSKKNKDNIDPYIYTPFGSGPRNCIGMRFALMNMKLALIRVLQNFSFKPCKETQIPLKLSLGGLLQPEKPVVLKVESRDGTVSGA

Request: Request the reported AC50 associated with C=C[C@H]1CN2CC[C@H]1C[C@H]2c1[nH]c2ccccc2c1CCO [CINCHONAMINE]
Response: 31.6 µM (inconclusive)

Request: Would you mind telling me what AC50 value was observed for C=CCC1(C)OC=Cc2nc3cc(Cl)c(Cl)cc3nc21 (stereo not given) ?
Response: 3.98 µM (inconclusive)

Request: # query: AC50 of entry CCCn1c(C)nc2c(Nc3ccccc3)nc(C)nc21
Response: 31.6 µM (inconclusive)

Request: Please report the recorded AC50 for CC1(C)CC2C1CCC1(C)OC1CCC2(C)O (stereo not given) .
Response: 25.1 µM (inconclusive)

Request: I have this compound here, COc1cccc2[nH]c(-c3ccccn3)nc12 , and I need its recorded AC50.
Response: 3.98 µM (inconclusive)

----------
Please consider the recorded AC50 for Cytochrome P450 2C9 (Homo sapiens) in what follows.

Here are 5 molecules together with their reported answers.
INSERT INTO assay_data (molecule_smiles, recorded_result) VALUES
  ('O=C(Nc1cccn2ncnc12)c1ccc(Cl)cc1Cl', 'inconclusive'),
  ('Oc1ccc(Cn2cc[nH]c2=S)cc1', 'inconclusive'),
  ('COc1cccc(C(=O)Nc2cc(C(F)(F)F)ccc2Cl)c1', 'inconclusive'),
  ('COc1ccc2cc(C(=O)Nc3ccc(F)cc3)sc(=O)c2c1OC', 'inconclusive'),
  ('Clc1ccc(CN2CCCN(Cc3ccc(Cl)cc3)C2c2cc3ccccc3c3ccccc23)cc1', 'inconclusive');

Field: next molecule
Request: # value lookup — system Cytochrome P450 2C9 (Homo sapiens), readout AC50, item Nc1nnc(CC(=O)N/N=C/c2cccc([N+](=O)[O-])c2)s1
Response: inconclusive

----------
For each of the molecules below, state its EC50.
molecular target: Heat shock factor protein 1 (Mus musculus); assay: decrease of HSF1-responsive luciferase luminescence – cell-based, NIH3T3, dose retest, confirmation (AID 2382); format: functional;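 further: NIH3T3 fibroblasts with HSF1-driven luciferase reporter stressed by proteasome inhibitor MG132; luminescence from HSF1-driven luciferase expression after 8 hours of MG132 stress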
Sequence (P38532 whole entry): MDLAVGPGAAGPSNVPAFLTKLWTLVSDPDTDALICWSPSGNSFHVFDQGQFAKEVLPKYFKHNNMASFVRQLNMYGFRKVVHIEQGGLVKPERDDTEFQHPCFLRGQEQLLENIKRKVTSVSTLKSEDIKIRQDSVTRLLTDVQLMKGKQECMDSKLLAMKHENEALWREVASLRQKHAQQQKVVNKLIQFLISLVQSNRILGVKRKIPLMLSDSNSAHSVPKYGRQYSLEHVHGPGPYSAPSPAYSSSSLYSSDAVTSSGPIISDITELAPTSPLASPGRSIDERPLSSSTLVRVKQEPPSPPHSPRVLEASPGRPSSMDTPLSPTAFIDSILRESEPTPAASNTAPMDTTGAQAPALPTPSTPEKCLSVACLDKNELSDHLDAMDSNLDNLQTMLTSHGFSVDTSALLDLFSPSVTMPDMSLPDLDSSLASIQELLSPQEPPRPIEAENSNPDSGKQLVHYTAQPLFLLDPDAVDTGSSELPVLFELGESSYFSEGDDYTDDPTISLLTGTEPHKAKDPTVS
Active and inactive are the calls of the source.

Request: Could you share what EC50 was measured for CCOC(=O)Cc1csc(NC(=O)NC2(C(F)(F)F)Oc3cc(Cl)c(Cl)cc3O2)n1 , tested on Heat shock factor protein 1 (Mus musculus)?
Response: > 195 µM (not active)

Request: Value wanted: EC50 (Heat shock factor protein 1 (Mus musculus)) of entry O=C(O)c1ccc2nc(-c3ccccc3)sc2c1
Response: 5.85 µM (active)

Request: Please state recorded EC50 (tested on Heat shock factor protein 1 (Mus musculus)) of COc1ccc(/C(O)=C\C=N\c2cc(C)on2)c(OC)c1
Response: > 195 µM (not active)

Request: Please state recorded EC50 (tested on Heat shock factor protein 1 (Mus musculus)) of O=C(Nc1ccccc1NC(=O)c1csnn1)c1csnn1
Response: > 195 µM (not active)

Request: Request - read-out EC50 | tested on Heat shock factor protein 1 (Mus musculus) | molecule COC(=O)c1ccc(Cn2nnc3c(O)nc(C4CCN(S(=O)(=O)c5ccc(F)cc5)CC4)nc32)cc1
Response: > 195 µM (not active)

Request: GET /values?readout=EC50&system=Heat shock factor protein 1 (Mus musculus)&item= Cc1cc(C)nc(N=C(N)Nc2ccc3c(c2)OCCO3)n1
Response: > 195 µM (not active)

Request: Requested read-out EC50, target or system Heat shock factor protein 1 (Mus musculus), entry Cc1nn(-c2ccccc2)c(Cl)c1CN(C(=O)CCl)c1ccc(Cl)cc1
Response: 1.57 µM (active)

Request: Recorded EC50 for COc1ccc(N2CCN(c3ccc(NC(=O)NN)cc3)CC2)cc1 with Heat shock factor protein 1 (Mus musculus), please?
Response: > 195 µM (not active)

Request: Lookup: EC50 / Heat shock factor protein 1 (Mus musculus) / CC(C)c1nnc(NC(=O)C2CCN(C(=O)c3ccco3)CC2)s1
Response: > 195 µM (not active)

Request: Provide the documented EC50 with Heat shock factor protein 1 (Mus musculus) as the system for CCOC(=O)c1ccc(Nc2[nH]cnc3ncnc2-3)cc1
Response: > 195 µM (not active)

Request: Lab request: please report EC50 under test system Heat shock factor protein 1 (Mus musculus) for C=CCn1c(SCC(=O)N2CCc3ccccc3C2)nc2sc(C)c(C)c2c1=O
Response: > 195 µM (not active)

Request: Could you share what EC50 was measured for c1ccc(Cc2nnc3sc(-c4cccs4)nn23)cc1 , tested on Heat shock factor protein 1 (Mus musculus)?
Response: > 195 µM (not active)

Request: Lab note: need EC50 with Heat shock factor protein 1 (Mus musculus) for entry CC(=O)Nc1ccc(SCC(=O)N2CCN(S(=O)(=O)c3ccccc3)CC2)cc1 , please look it up.
Response: > 195 µM (not active)

Request: // fetch Heat shock factor protein 1 (Mus musculus) EC50 for Cc1ccc(C(=O)N2CCCC(Nc3ccc(F)cc3)C2)cc1C (stereo not given)
Response: > 195 µM (not active)

Request: Please tell me: EC50 of O=C(Cn1nnc2ccccc21)NNC(=S)NC1CCCCC1 , system Heat shock factor protein 1 (Mus musculus)?
Response: > 195 µM (not active)

----------
target: FAD-linked sulfhydryl oxidase ALR (Homo sapiens); experiment: ALR-catalysed DTT oxidation blockers – biochemical, H2O2 detection, luminescence, cherry-pick, dose response (AID 493248)
Sequence (P55789 whole entry): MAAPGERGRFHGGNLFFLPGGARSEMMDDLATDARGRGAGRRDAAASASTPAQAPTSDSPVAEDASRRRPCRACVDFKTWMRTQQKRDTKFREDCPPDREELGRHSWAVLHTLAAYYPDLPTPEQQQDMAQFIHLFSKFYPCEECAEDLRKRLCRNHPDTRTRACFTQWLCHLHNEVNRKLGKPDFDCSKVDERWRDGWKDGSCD
Activity calls are given as the source filed them.
I'd be grateful if you could share measured AC50 for these entries.

Request: Need AC50 of CCCS(=O)(=O)N1CCCC(C(=O)NCCN(CC)c2ccccc2)C1 (centres undefined) , thanks.
Response: 0.33 µM (active)

Request: So what's the measured AC50 for this one? Cc1ccc([N+](=O)[O-])cc1/N=N/c1c(C)[nH]n(C(N)=S)c1=O
Response: 5.04 µM (active)

Request: Could you tell me which AC50 is on file for C=CCn1c(S)nnc1-c1cccc(OC)c1 ?
Response: 7.27 µM (active)

Request: Returns the measured AC50 for the input compound. Input: CS(=O)(=O)N1CCc2cc(C(=O)Nc3ccc(O)cc3)ccc21
Response: 3.92 µM (active)

Request: Consider the compound CC(C)n1cnc2cc(NCc3ccccc3O)ccc21 and give its measured AC50.
Response: 1.44 µM (active)

Request: Quick one: AC50 of CCN(CC)CCC(c1ccc(N(C)C)cc1)c1c(OC)cc(OC)c2ccc(=O)oc12 (centres undefined) ?
Response: 3.28 µM (active)

Request: Look up AC50: Cc1ccc(NC(=O)Nc2cccs2)cc1
Response: 6.23 µM (active)

Request: I'd like to know its AC50. The compound in question is Sc1nnc(-c2ccncc2)n1/N=C/C=C/c1ccccc1
Response: 8.12 µM (active)

Request: Sample COc1cc(SC)ccc1C(=O)Nc1c(Cl)cncc1Cl — what was its AC50?
Response: 0.867 µM (active)

----------
Target: Caspase-6 (Homo sapiens, UniProt P55212)
Sequence (P55212 whole entry): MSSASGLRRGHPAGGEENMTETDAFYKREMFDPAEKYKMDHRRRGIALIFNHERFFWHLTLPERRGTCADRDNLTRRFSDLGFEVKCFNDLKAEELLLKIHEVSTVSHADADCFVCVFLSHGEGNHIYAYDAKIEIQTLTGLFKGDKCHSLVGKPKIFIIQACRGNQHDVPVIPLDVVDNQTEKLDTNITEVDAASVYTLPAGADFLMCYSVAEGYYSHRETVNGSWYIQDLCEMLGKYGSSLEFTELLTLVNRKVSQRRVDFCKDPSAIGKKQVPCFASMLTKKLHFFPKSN
Test: inhibition of CASP6 peptide cleavage – biochemical, VEID-R110 fluorescence, cherry-pick, dose response (AID 720632)
Calls of active or inactive are those of the source.
parameter.measured: AC50

Request: Which AC50 value belongs to O=c1c(CO)cc(CO)cc(CO)c1O ?
Response: 2.22 µM (active)

Request: Record request: AC50 value, item Cn1cnc([N+](=O)[O-])c1S(=O)(=O)Nc1ccccc1
Response: 9.66 µM (active)

Request: Need AC50 of COc1ccccc1N1C(=O)Cc2ccccc2C1=O , thanks.
Response: 24.2 µM (active)

Request: Suppose we examine the compound O=C(O)c1cnc2c([N+](=O)[O-])cccc2c1O ; what AC50 value has been reported?
Response: 5.77 µM (active)

----------
target: UniProtKB P41145; assay type: functional
Sequence (P41145 whole entry): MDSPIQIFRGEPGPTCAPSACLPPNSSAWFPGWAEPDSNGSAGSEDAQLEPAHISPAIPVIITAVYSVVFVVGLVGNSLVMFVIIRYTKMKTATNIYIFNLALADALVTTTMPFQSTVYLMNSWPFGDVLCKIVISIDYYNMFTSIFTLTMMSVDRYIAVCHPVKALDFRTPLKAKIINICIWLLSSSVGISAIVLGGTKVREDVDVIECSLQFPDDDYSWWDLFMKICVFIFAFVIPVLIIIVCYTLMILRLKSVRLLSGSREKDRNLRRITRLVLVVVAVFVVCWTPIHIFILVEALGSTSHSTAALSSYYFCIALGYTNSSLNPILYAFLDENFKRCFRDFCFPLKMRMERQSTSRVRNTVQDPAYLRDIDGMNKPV
parameter.measured: EC50 (nM)
Field format: number, assumed nM, no unit text.

Request: Recorded EC50 of CCC(C)(C(=O)NC1CCCC1)N(Cc1cccs1)C(=O)c1ccccn1 (stereo unspecified) , please.
Response: 2130

----------
target: Prothrombin (Bos taurus); experiment: thrombin protease inhibitors – biochemical, fluorescence polarization, uHTS hits, dose response (AID 602369); assay type: functional
Calls of active or inactive are those of the source.
For each of the molecules below, state its IC50.

Request: Form field: reported IC50 of C/C(C/C(C)=C1/SC(=S)NC1=O)=C1\SC(=S)NC1=O
Response: 87.5 µM (active)

Request: Could you tell me which IC50 is on file for NS(=O)(=O)c1ccc(N/C=C\C(=O)c2ccc3ccccc3c2)cc1 ?
Response: 56.5 µM (active)

Request: So what's the measured IC50 for this one? CC(C)Cc1nnc(NC(=O)Cc2cccs2)s1
Response: 44.7 µM (active)

Request: I'd like to know its IC50. The molecule in question is COc1ccc(C(=O)Nc2ccc(/C(C)=N/NC(=O)c3ccncc3)cc2)cc1
Response: > 100 µM (inactive)
